Biological target: T1, Anti-PSMA Fab (SEQ ID NOs: 19, 20)
T1 construct: In the panning ELISA the Fab was biotinylated and captured on neutravidin coated plates; also called 006 PSMA Fab
Assay: phage binding ELISA; biotinylated PSMA Fab on neutravidin plate, clonal phage supernatant, anti-M13 HRP detection;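 further: wells were preincubated with blocking buffer either containing PSMA antigen or without it before crude phage supernatant was added, briefly incubated, then washed prior to detection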
Where no end group is shown, it is not given here.
Experimental endpoint: Anti-PSMA Fab (SEQ ID NOs: 19, 20) signal

Examples with their reported Anti-PSMA Fab (SEQ ID NOs: 19, 20) signal follow.
Binder	Obs value
FAKWCIPEWMCSVS (tested as crude clonal phage supernatant) [Phage-1885]	2.06
VNKLCTPEWMCVGM (tested as crude clonal phage supernatant) [Phage-1883]	2.06
LDHWCFPMWMCTGF (tested as crude clonal phage supernatant) [Phage-1887]	2.05
VVKLCIPEWMCAEW (cysteine pairing not given here; also: displayed on phage as pIII fusion, pIII sequence and linker not given here, tested as crude clonal phage supernatant) [Phage-1876]	2.08
AIKWCIPSWMCVED (tested as crude clonal phage supernatant; also called AIKWCIPSWMCVED) [Phage-1890]	2.04

Next binder, please.
Request: Please indicate Anti-PSMA Fab (SEQ ID NOs: 19, 20) signal recorded for WEKWCIPAWMCVAD (tested as crude clonal phage supernatant) [Phage-1886]
Response: 2.05
